Cited source: ChEMBL document CHEMBL3616441

compounds and their reported Activity
# Target desc: Metabotropic glutamate receptor 3 (Rattus norvegicus) (UniProt P31422)
# Sequence (P31422 23-879 limits assumed): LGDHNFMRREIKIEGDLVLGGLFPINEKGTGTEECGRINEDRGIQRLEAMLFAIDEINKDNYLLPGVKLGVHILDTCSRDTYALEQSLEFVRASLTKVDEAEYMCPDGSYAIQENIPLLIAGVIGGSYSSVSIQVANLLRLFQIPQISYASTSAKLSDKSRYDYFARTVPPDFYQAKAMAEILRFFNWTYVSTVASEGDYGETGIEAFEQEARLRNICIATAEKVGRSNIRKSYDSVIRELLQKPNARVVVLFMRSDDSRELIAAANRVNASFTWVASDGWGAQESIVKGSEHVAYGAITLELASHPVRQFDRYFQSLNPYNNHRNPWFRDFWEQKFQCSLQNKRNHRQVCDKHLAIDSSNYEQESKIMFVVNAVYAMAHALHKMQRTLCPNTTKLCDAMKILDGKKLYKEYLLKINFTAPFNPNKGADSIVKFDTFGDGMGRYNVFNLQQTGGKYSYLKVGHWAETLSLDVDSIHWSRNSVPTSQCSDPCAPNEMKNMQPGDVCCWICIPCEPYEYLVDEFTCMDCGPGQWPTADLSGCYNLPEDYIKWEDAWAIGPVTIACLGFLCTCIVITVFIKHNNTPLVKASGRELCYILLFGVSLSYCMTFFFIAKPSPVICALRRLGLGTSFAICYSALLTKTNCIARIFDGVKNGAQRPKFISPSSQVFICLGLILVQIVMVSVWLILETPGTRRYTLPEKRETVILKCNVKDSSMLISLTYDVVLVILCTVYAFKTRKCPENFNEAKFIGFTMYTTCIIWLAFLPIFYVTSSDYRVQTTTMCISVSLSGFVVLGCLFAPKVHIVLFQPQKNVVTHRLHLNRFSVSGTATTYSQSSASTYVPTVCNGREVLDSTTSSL
# Assay method text: Negative allosteric modulation of rat mGlu3 receptor assessed as amplitude response at 30 uM relative to glutamate
Write the quantity with the unit trailing the number.

C[C@@H]1CN(c2ccc(F)cc2)C(=O)c2cc(COc3cc(C(F)(F)F)ccn3)nn21
1.62%

*Q* Would you mind telling me what Activity value was observed for `COc1cccnc1OCc1cc2n(n1)[C@H](C)CN(c1ccc(F)cc1)C2=O` ?
*A* -1.14%

*Q* Would you mind telling me what Activity value was observed for `C[C@@H]1CN(c2ccc(F)cc2)C(=O)c2cc(COc3cccc(F)c3)nn21` ?
*A* 1.19%

*Q* Would you mind telling me what Activity value was observed for `C[C@@H]1CN(c2ccc(Cl)cc2)C(=O)c2cc(COc3ccc(Cl)cn3)nn21` ?
*A* 0.94%

*Q* Would you mind telling me what Activity value was observed for `Cc1ccccc1N1C[C@@H](C)n2nc(COc3ccc(F)cn3)cc2C1=O` ?
*A* 1.72%
